Header: Ki / Protein kinase C theta type (Homo sapiens) / multiple publications

Prompt line: Write down the reported Ki of CCC(N)C1(C(F)(F)F)CCN(c2ccc(F)c(-c3n[nH]c4ncccc34)n2)C1 (centres unmarked) , test system: Protein kinase C theta type (Homo sapiens).
Response line: < 500 nM

Prompt line: Form entry - test system: Protein kinase C theta type (Homo sapiens); read-out: Ki; molecule: O=C1CN(c2ccc(C(F)(F)F)c(-c3n[nH]c4ncccc34)n2)CCN1
Response line: > 700 nM

Prompt line: Request body: readout Ki, system Protein kinase C theta type (Homo sapiens), query CC(C)CC1(O)CCCN(c2ccc(F)c(-c3n[nH]c4ncccc34)n2)C1 (centres unmarked) . Return the value.
Response line: < 2800 nM

Prompt line: API: value(readout= Ki, system= Protein kinase C theta type (Homo sapiens), query= NC[C@@H]1CCCN1c1ccc(C(F)(F)F)c(-c2n[nH]c3ncccc23)n1 )
Response line: > 700 nM

Prompt line: API: value(readout= Ki, system= Protein kinase C theta type (Homo sapiens), query= NCCCNc1ccc2[nH]c(=O)n(Cc3ccccc3Cl)c2n1 )
Response line: < 1000 nM

Prompt line: Lab request: please report Ki under test system Protein kinase C theta type (Homo sapiens) for CC1(C)CN(c2ccc(C(F)(F)F)c(-c3n[nH]c4ncccc34)n2)CCC1N (centres unmarked)
Response line: < 500 nM

Prompt line: GET /values?readout=Ki&system=Protein kinase C theta type (Homo sapiens)&item= NC1(C2CCCN(c3ccc(F)c(-c4n[nH]c5ncccc45)n3)C2)CCC1 (centres unmarked)
Response line: < 50 nM

Prompt line: Record lookup: for Protein kinase C theta type (Homo sapiens), what Ki belongs to CC(C)C[C@H]1CN(c2cc(C#N)cc(-c3n[nH]c4ncccc34)n2)CCN1 ?
Response line: < 500 nM

Prompt line: Please provide the recorded Ki for OCC1CCCN(c2ccc(C(F)(F)F)c(-c3n[nH]c4ncccc34)n2)C1 (centres unmarked) , tested on Protein kinase C theta type (Homo sapiens).
Response line: > 700 nM

Prompt line: # query: Ki | item CC(C)(C)C[C@H]1CN(c2ccc(F)c(-c3n[nH]c4ncccc34)n2)CCN1 | system: Protein kinase C theta type (Homo sapiens)
Response line: < 50 nM

New cases:
Prompt line: What measured Ki is associated with FC(F)(F)c1ccc(NC2CCCNC2)nc1-c1n[nH]c2ncccc12 (centres unmarked) on Protein kinase C theta type (Homo sapiens)?
Response line: > 700 nM

Prompt line: Checklist item: Ki tested on Protein kinase C theta type (Homo sapiens), entry Clc1cccc(Cl)c1-c1nc2cnc(NCc3cccs3)nc2n1C[C@@H]1CCCNC1 , value?
Response line: < 100 nM

Prompt line: Form: Entry = NC1CCCN(c2ccc(C(F)(F)F)c(-c3n[nH]c4ncccc34)n2)C1 (centres unmarked) | System = Protein kinase C theta type (Homo sapiens) | Ki = ____
Response line: > 700 nM

Prompt line: Can you look up Ki on Protein kinase C theta type (Homo sapiens) for FC(F)(F)c1ccc(NCC2CCCCN2)nc1-c1n[nH]c2ncccc12 (centres unmarked) ?
Response line: > 700 nM

Prompt line: # value lookup — system Protein kinase C theta type (Homo sapiens), readout Ki, item Fc1ccccc1CNc1ncc2nc(-c3c(Cl)cccc3Cl)n(CCC3CCCNC3)c2n1 (centres unmarked)
Response line: < 1000 nM

Prompt line: Identify the measured Ki of Fc1ccc(N2CCC(C(F)(F)F)CC2)nc1-c1n[nH]c2ncccc12 for Protein kinase C theta type (Homo sapiens).
Response line: > 700 nM

Prompt line: Form field - read-out: Ki; system: Protein kinase C theta type (Homo sapiens); submitted item: FC(F)(F)c1ccc(NC2CN3CCC2CC3)nc1-c1n[nH]c2ncccc12 (centres unmarked)
Response line: > 700 nM
